molecular target: dopamine, D1 receptors (Rattus norvegicus, UniProt P18901); assay: 3H-SCH23390 binding test (Billard et al.); settings: 3H-SCH23390 radioligand; read-out: IC50 value (the concentration of the compound required to reduce the binding of 3H-SCH23390 by 50%)
Sequence (P18901 whole entry): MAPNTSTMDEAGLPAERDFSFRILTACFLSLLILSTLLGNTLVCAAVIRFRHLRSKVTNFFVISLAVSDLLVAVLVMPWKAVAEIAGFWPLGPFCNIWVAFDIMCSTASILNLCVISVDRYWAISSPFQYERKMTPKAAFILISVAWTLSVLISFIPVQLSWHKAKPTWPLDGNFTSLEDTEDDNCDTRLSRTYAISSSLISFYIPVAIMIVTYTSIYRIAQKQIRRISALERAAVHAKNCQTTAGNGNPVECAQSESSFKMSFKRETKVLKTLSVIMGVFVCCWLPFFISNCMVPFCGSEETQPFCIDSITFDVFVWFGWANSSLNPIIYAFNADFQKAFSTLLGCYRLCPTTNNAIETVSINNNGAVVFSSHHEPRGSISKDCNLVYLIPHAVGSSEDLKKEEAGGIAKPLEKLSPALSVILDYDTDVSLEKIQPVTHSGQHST
MEASURED_PARAMETER: IC50 (µM)
Write down the numeric answer in µM and omit the unit.

molecule="CN1CCc2c([nH]c(Br)c2Br)C(c2ccccc2)C1 (racemic)" measured_result=1.1

Request: Form field: reported IC50 of CN1CCc2c(Br)c[nH]c2C(c2ccccc2)C1 (racemic)
Result: 0.15

Values compiled from patent US5258378A.
